System tested: c-Src SH2;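 further: peptide library displayed on the E. coli surface as eCPX fusions, selected cells deep-sequenced, score is each peptide's frequency after selection divided by its frequency in the input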
Experiment description: SH2 binding enrichment of the phosphorylated peptide, bacterial display (enrichment ratio); higher = better substrate or ligand; peptides without Tyr show the background
Quantity name: SH2 binding enrichment
Reply: number alone, nothing else.

QUERY: I have this sequence here, IEDNEYTAREG [HCK_Y411] , and I need its recorded SH2 binding enrichment.
RESULT: 0.539

QUERY: Look up SH2 binding enrichment for this sequence: IDPYIYTPFGS [CYP3A4_Y432]
RESULT: 0.713

QUERY: Fill blank: measured SH2 binding enrichment of the sequence CEETFYTMKVN [MASP2_Y401] is ____.
RESULT: 0.522

QUERY: Item under review: PEQAAYQKVVA [HBB_Y131_V127E] . Reported SH2 binding enrichment?
RESULT: 0.669

QUERY: Consider the sequence shown here: HLEKKYVRRDS [CSF1R_Y708] What is its recorded SH2 binding enrichment?
RESULT: 0.876

QUERY: Endpoint output: SH2 binding enrichment of DLRTGYSVPFG [TGM1_Y370_Y365D_YF] . Value?
RESULT: 7.49

QUERY: Which SH2 binding enrichment reading was recorded for the sequence KTKIGYSPLHQ [ANK1_Y735_L733I] ?
RESULT: 0.398

QUERY: // query SH2 binding enrichment value for entry ETRWKYHFEVV [GCNT3_Y267]
RESULT: 0.437

QUERY: SH2 binding enrichment for TYGVAYRAKDK [CDK11B_Y453_V452A] ?
RESULT: 0.48

QUERY: Any idea what its SH2 binding enrichment is? The sequence is AFGEVYEGQVS [ALK_Y1131]
RESULT: 0.499

QUERY: Endpoint output: SH2 binding enrichment of TAGFSYEKWEI [TEC_Y360] . Value?
RESULT: 0.484

QUERY: Entry ILGRFYERGSI [PAX5_Y73_T75R_YF] : reported SH2 binding enrichment = ?
RESULT: 0.575

QUERY: Return reported SH2 binding enrichment; argument: ELAINYQEQAS [SLC9A9_Y591]
RESULT: 0.536

QUERY: Tell me the measured SH2 binding enrichment of TFVVLYDAELT [ERCC4_Y581_R576T_YF] , please.
RESULT: 0.893

QUERY: Entry SAEEDYIADAK [KCNT1_Y876_M877I] : reported SH2 binding enrichment = ?
RESULT: 0.683

QUERY: Which SH2 binding enrichment value belongs to PANTVYSTVEI [SLAMF7_Y304] ?
RESULT: 1.26

QUERY: Please give the measured SH2 binding enrichment for this sequence: VSGIPYSQPKQ [NEU1_Y251_G252S]
RESULT: 0.617

QUERY: // query SH2 binding enrichment value for entry GGYTCYCDGKK [PROS1_Y266]
RESULT: 0.549

QUERY: Using the record for HMRLRYLAAEE [CEP120_Y884_Q879H] , report its SH2 binding enrichment.
RESULT: 1.18

QUERY: What does the data say about its SH2 binding enrichment? Entry: TLSGTYQFIIA [FOXL2_Y81_I80T_YF]
RESULT: 1.11

QUERY: // SH2 binding enrichment lookup, key: INNIDYYKKTT [FGFR2_Y656]
RESULT: 0.415

QUERY: Please give the measured SH2 binding enrichment for this sequence: AGRTGYDNREI [BCL2_Y9]
RESULT: 0.504

QUERY: Which SH2 binding enrichment value is on record for CLSHCYFSQIR [MCM3AP_Y873_L870S] ?
RESULT: 1.23

QUERY: Could you tell me which SH2 binding enrichment is on file for SLHPGYNFRYA [P2RX7_Y291_Y288H] ?
RESULT: 0.556

QUERY: // lookup SH2 binding enrichment for NGSKGYAYVHF [PABPC5_Y147]
RESULT: 12.1

QUERY: Consider the sequence shown here: WQQQSYLDSVI [CTNNB1_Y30_G34V] What is its recorded SH2 binding enrichment?
RESULT: 0.444

QUERY: Would you kindly share the measured SH2 binding enrichment for ERTIEYLEEVV [HADHA_Y239_A244V] ?
RESULT: 0.451

QUERY: What value of SH2 binding enrichment has been recorded for this entry: PQAVRYIYTID [DCX_Y103_G100A]
RESULT: 0.644

QUERY: Please report the recorded SH2 binding enrichment for ASTDFNKRGDF [PDHA1_Y243_Y243N_YF] .
RESULT: 0.612

QUERY: // lookup SH2 binding enrichment for VTRLRYPVCFG [ITK_Y336]
RESULT: 1.06

QUERY: GET /values?readout=SH2 binding enrichment&item= RALCHYFKLNI [ETV6_Y401_R399C_YF]
RESULT: 1.5

QUERY: Name the recorded SH2 binding enrichment for TVDASYCGGRG [ANTXR2_Y380_Y381C] .
RESULT: 0.567

QUERY: Record request: SH2 binding enrichment value, item GIVEDYRPRFY [ACVRL1_Y421_P424R]
RESULT: 0.481

QUERY: Look up SH2 binding enrichment for this sequence: EWQQIYTFDSG [JUP_Y20_T19I_YF]
RESULT: 0.555

QUERY: I would be grateful if you could share the reported SH2 binding enrichment for FSGDCYRIQGR [DDR2_Y741_Y740C_YF] .
RESULT: 0.502

QUERY: Recorded SH2 binding enrichment of QRPFVYFFSFL [PTEN_Y176_R173P_YF] , please.
RESULT: 0.783

QUERY: // lookup SH2 binding enrichment for FVSIVYNDFGE [TSC2_Y1650_S1653F]
RESULT: 1.52

QUERY: I have this sequence here, TRSYDYMEGED [FGF7_Y58_G62E] , and I need its recorded SH2 binding enrichment.
RESULT: 10.4

QUERY: Name the reported SH2 binding enrichment value associated with the sequence GREEFYVHFVG [KAT8_Y90_YF]
RESULT: 0.472

QUERY: Name the reported SH2 binding enrichment value associated with the sequence LSDGPYSNPFE [EPOR_Y485_YF]
RESULT: 1.91

QUERY: Entry IENKLYGMSDS [RET_Y1062_P1067S] : reported SH2 binding enrichment = ?
RESULT: 0.451

QUERY: What value of SH2 binding enrichment has been reported for the following sequence? ALVLQYLRVPL [F9_Y371]
RESULT: 1.66

QUERY: So what does the record say about SH2 binding enrichment for SCRENYSYSEE [LEMD3_Y258_D260Y] ?
RESULT: 1.66

QUERY: What measured SH2 binding enrichment goes with FGGLRYGFGVL [KRTAP20-2_Y13_YF] ?
RESULT: 0.674

QUERY: Returns the measured SH2 binding enrichment for the input sequence. Input: QSKGIYFVQLE [MGAT4B_Y262_YF]
RESULT: 0.658

QUERY: Consider the sequence shown here: AEMTGYVVTRW [MAPK13_Y182] What is its recorded SH2 binding enrichment?
RESULT: 0.47

QUERY: What does the record list as SH2 binding enrichment for KHGGNYVPAPE [OSCP1_Y237_K242E] ?
RESULT: 0.456

QUERY: Value lookup for SH2 binding enrichment; key = RRGTRYMSSRP [RPL21_Y13_F15S]
RESULT: 0.489

QUERY: Which SH2 binding enrichment is reported for this sequence? GVRYTYTIDGS [DCX_Y105_I104T]
RESULT: 1.43
